maximal fold induction reference
test system: Math1 enhancer and minimal promoter Luciferase reporter in HEK cells; assay: Math1 Luciferase reporter assay in HEK cells; assay type: cell-based, human; conditions: Homo sapiens, HEK293; read-out: Maximum (Fold DMSO)
Quick one: just the number, no unit, thanks!

Would you please look over these solved cases?
compound | maximal fold induction
COc1ccc(-c2nc3ccc(Cl)cc3n2OCc2cc(C)cc(C)c2)cc1 | 2
Cn1nccc1C(=O)Nc1nc2ccccc2s1 | 1.8
COc1cccc(C(=O)Nc2nc3ccc(F)cc3s2)c1 | 2.2
O=C(Nc1ccc(I)cc1)c1ccco1 [CP-0072253, N-(4-iodophenyl)furan-2-carboxamide] | 2

Okay, now this compound:
INPUT: Please report maximal fold induction with Math1 enhancer and minimal promoter Luciferase reporter in HEK cells for item Brc1ccc(-c2nc(-c3cccnc3)no2)cc1 .
OUTPUT: 1.7
